Measured inhibition at 10 µM accompanies every entry in the list below.
# EXPERIMENTAL_TARGET: B1R receptor of the rat (Rattus norvegicus)
# Construct: host or cells: CHO K1 cells (Chinese hamster ovary), stably transfected
# Sequence (P97583 whole entry): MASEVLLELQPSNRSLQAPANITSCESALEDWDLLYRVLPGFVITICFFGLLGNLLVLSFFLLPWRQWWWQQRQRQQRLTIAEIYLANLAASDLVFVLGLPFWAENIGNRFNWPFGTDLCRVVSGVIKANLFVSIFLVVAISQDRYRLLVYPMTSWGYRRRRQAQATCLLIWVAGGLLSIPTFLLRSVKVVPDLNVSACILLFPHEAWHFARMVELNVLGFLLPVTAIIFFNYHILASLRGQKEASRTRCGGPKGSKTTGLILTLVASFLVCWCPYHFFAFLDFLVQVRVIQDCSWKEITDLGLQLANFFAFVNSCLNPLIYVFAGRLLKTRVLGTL
# ASSAY_TEXT: Functional study on the bradykinin receptor 1 (B1R), FLIPR Ca2+ assay, rB1R cells
# Assay type: cell-based
# TEST_PARAMETERS: CHO-K1, test substance 10 μM, agonist Des-Arg9-bradykinin 100 nM, % inhibition compared with the maximum achievable inhibition, read-out: B1R Antagonism, rat [10 μM] % Inhibition
MEASUREMENT_LABEL: inhibition at 10 µM (%)

• CN1CCN(Cc2ccc(CNC(=O)COCC3CCCN3S(=O)(=O)c3c(Cl)cc(Cl)cc3Cl)cc2)CC1 (stereo not shown) [Example 45] = 92.4
• COc1cc(C)c(S(=O)(=O)N2CCCCC2COCC(=O)NCc2ccc(Oc3cnccn3)cc2)c(C)c1 (stereo not shown) [Example 196] = 98.8
• COc1cc(C)c(S(=O)(=O)N2CCCCC2COCC(=O)Nc2cc(-c3cccs3)n[nH]2)c(C)c1 (stereo not shown) [Example 539] = 107
• CN1CCC(N2CCN(C(=O)COCC3CCCCN3S(=O)(=O)c3cccc(C(F)(F)F)c3)CC2)CC1 (stereo not shown) [Example 22] = 21.4
• COc1cc(C)c(S(=O)(=O)N2CCCC2COCC(=O)N2CCCC2c2ccccn2)c(C)c1 (stereo not shown) [Example 271] = 85.9
• COc1cc(C)c(S(=O)(=O)N2CCCCC2COCC(=O)NCCn2nccc2C)c(C)c1 (stereo not shown) [Example 416] = 101
• CCN(CC)CCN(CC)C(=O)COCC1CCCCN1S(=O)(=O)c1c(C)cc(OC)cc1C (stereo not shown) [Example 380] = 101
• CN(CCc1ccncc1)C(=O)COCC1CCCCN1S(=O)(=O)c1c(Cl)cc(Cl)cc1Cl (stereo not shown) [Example 391] = 102
• COc1cc(C)c(S(=O)(=O)N2CCCCC2COCC(=O)N2CCC(N3CCN4CCCCC4C3)CC2)c(C)c1 (stereo not shown) [Example 98] = 101
• COc1cc(C)c(S(=O)(=O)N2CCCCC2COCC(=O)N2CCN(c3ncc(C(F)(F)F)cc3Cl)CC2)c(C)c1 (stereo not shown) [Example 376] = 99
• CN1CCN(c2ccc(CNC(=O)COCC3CCCN3S(=O)(=O)c3c(Cl)cc(Cl)cc3Cl)cc2)CC1 (stereo not shown) [Example 29] = 110
• O=C(COCC1CCCCN1S(=O)(=O)c1ccc(Cl)c(Cl)c1)N1CCN(c2ccccc2F)CC1 (stereo not shown) [Example 86] = 0
• COc1cc(C)c(S(=O)(=O)N2CCCCC2COCC(=O)Nc2nc3ccccc3n2C)c(C)c1 (stereo not shown) [Example 371] = 101
